The measurements presented in this section are drawn from BigSolDB 2.1.

Recorded Conditions: in DMSO, 342.55 K
Assay Readout: solubility (mole fraction)
Field format: numeric only.

Quick one: solubility (mole fraction) of `O=C1C=CC(=O)N1c1cc(F)c(Br)c(F)c1` ? 0.0527
